# Test system: EU-1
# Assay explanation: WST cytotoxicity assay, cancer cell EU-1
# Type: cell-based, human
# Run conditions: Homo sapiens, EU-1, EU-1; no other cell line named in the cell; read-out: Cancer cell (EU-1) cytotoxicity IC50
# maps each entry to its IC50

Prompt: Write down IC50 measured for item CC(=O)c1cccc(C2CC(=O)c3cc(S(=O)(=O)Nc4ccc5c(c4)CCO5)ccc3N2)c1 (stereo not drawn)
Response: < 0.1 µM

Prompt: Write down IC50 measured for item CC(=O)c1cccc(NS(=O)(=O)c2ccc3c(c2)C(=O)CC(c2ccc(C(=O)C(C)C)cc2)N3)c1 (stereo not drawn)
Response: < 0.1 µM

Would you kindly look at the next entry?
Prompt: Write down IC50 measured for item Cc1ccc(NS(=O)(=O)c2ccc3c(c2)C2OCC[C@@H]2[C@@H](c2ccc(C(=O)C(C)C)cc2)N3)cc1C (stereo partly drawn) [Compound 69L52c]
Response: 2.4 to 2.5 µM

Origin of measurements: patent US20240059658A1
